- Tested on: Escherichia coli IAI1
- Experiment: fold change of Cadaverine concentration vs plate DMSO controls (fold change (ratio)); higher = more amine produced, active = hit call of the paper (significant change in both replicates, either direction)
- Test Context: incubation time: 27 h, anaerobic, 37 °C
Structures can show the parent of a compound that is named as a salt.
Everything with fold change of Cadaverine concentration lower than 1 is 0; everything else, including exactly 1, is 1.

Solved entries (count: 5):
> print(dat)
                                   compound  label
1  CN(C)CCC(c1ccccc1)c1ccccn1 (stereo unspecified) [Pheniramine maleate] (20 µM)      1
2  Cc1cc(C(C)(C)C)c(O)c(C)c1CC1=NCCN1 [Oxymetazoline hydrochloride] (20 µM)      0
3  C=C1[C@H](CO)[C@@H](O)C[C@@H]1n1cnc2c(=O)[nH]c(N)nc21 [Entecavir] (20 µM)      1
4  CC=CC1=C(C(=O)O)N2C(=O)[C@@H](NC(=O)[C@H](N)c3ccc(O)cc3)[C@H]2SC1 [Cefprozil] (20 µM)      0
5  CCCCCCC[N+](CC)(CC)CCCCc1ccc(Cl)cc1 [Clofilium tosylate] (20 µM)      0

Query string: Hi, just wondering whether CO/N=C(\C(=O)N[C@@H]1C(=O)N2C(C(=O)OCOC(=O)C(C)(C)C)=C(/C=C\c3scnc3C)CS[C@H]12)c1csc(N)n1 [Cefditoren Pivoxil] (20 µM) shows fold change of Cadaverine concentration of 1 or higher.
Result string: 1

Query string: What do we get for Cn1c(=O)c2nc[nH]c2n(C)c1=O [Theophylline monohydrate] (20 µM) ?
Result string: 0

---

- System: Ruminococcus gnavus DSM 108212
- Experiment: fold change of Tryptamine concentration vs plate DMSO controls (fold change (ratio)); higher = more amine produced, active = hit call of the paper (significant change in both replicates, either direction)
- Test Context: incubation time: 27 h, anaerobic, 37 °C
Structures can show the parent of a compound that is named as a salt.
Observed Property: fold change of Tryptamine concentration

Some solved cases for reference:
Compound	fold change of Tryptamine concentration
C=C(NC(=O)C(=C)NC(=O)c1csc(C2=N[C@@H]3c4csc(n4)[C@H]4NC(=O)c5csc(n5)[C@H]([C@](C)(O)[C@@H](C)O)NC(=O)[C@H]5CSC(=N5)/C(=C/C)NC(=O)[C@H]([C@@H](C)O)NC(=O)c5csc(n5)[C@]3(CC2)NC(=O)[C@H](C)NC(=O)C(=C)NC(=O)[C@H](C)NC(=O)[C@H]([C@@H](C)CC)N[C@@H]2C=Cc3c([C@H](C)O)cc(nc3[C@H]2O)C(=O)O[C@@H]4C)n1)C(N)=O [Thiostrepton] (20 µM)	0.0887 (active)
CC(C)(C)NCC(O)CSc1nc(-c2ccc(C(N)=O)s2)cs1 (centres undefined) [Arotinolol hydrochloride] (20 µM)	1.05 (inactive)
COc1ccc(CCC(=O)c2c(O)cc(O[C@@H]3O[C@H](CO)[C@@H](O)[C@H](O)[C@H]3O[C@@H]3O[C@@H](C)[C@H](O)[C@@H](O)[C@H]3O)cc2O)cc1O [Neohesperidin Dihydrochalcone (Nhdc)] (50 µM)	0.995 (inactive)

Proceeding to the next compound to report its fold change of Tryptamine concentration.
Query string: Which fold change of Tryptamine concentration is listed for N=C(N)N/N=C/c1c(Cl)cccc1Cl [Guanabenz acetate] (20 µM) ?
Result string: 1.02 (inactive)

---

- Tested on: Clostridium sporogenes DSM 1664
- Experiment: growth (OD595) fold change vs plate DMSO controls (fold change (ratio)); higher = more growth
- Test Context: incubation time: 27 h, anaerobic, 37 °C
Structures can show the parent of a compound that is named as a salt.
Observed Property: growth
# answer = number (no unit)

Some solved cases for reference:
Molecule	growth
O=C(O)c1ccccc1Nc1cc(Cl)ccc1C(=O)O [Lobenzarit disodium] (20 µM)	0.929
O=C(Oc1ccccc1)c1ccccc1O [Phenyl salicylate] (20 µM)	1.08
Cc1ccccc1OCC(O)CO (configuration not stated) [Mephenesin] (20 µM)	0.974
CC(=O)OCC1=C(C(=O)O)N2C(=O)[C@@H](NC(=O)Cc3cccs3)[C@H]2SC1 [Cephalothin sodium salt] (20 µM)	0
COC(=O)C1=C(C)NC(C)=C(C(=O)OCCN2CCN(C(c3ccccc3)c3ccccc3)CC2)C1c1cccc([N+](=O)[O-])c1 (configuration not stated) [Manidipine Dihydrochloride] (20 µM)	0.816
C[C@]12CC[C@@H]3c4ccc(OS(=O)(=O)O)cc4CC[C@H]3[C@@H]1CCC2=O [Estropipate piperazine salt] (20 µM)	1.04

Query string: Which growth is listed for c1ccc(CN(CC2=NCCN2)c2ccccc2)cc1 [Antazoline hydrochloride] (20 µM) ?
Result string: 0.903

---

- System: Klebsiella aerogenes DSM 30053
- Experiment: growth (OD595) fold change vs plate DMSO controls (fold change (ratio)); higher = more growth
- Test Context: incubation time: 27 h, anaerobic, 37 °C
Where a name gives a salt, the structure may show the parent alone.
Observed Property: growth
# answer = number (no unit)

> print(dat)
                                   compound  experimental.value
1  CC(CNC1CCCCC1)OC(=O)c1ccccc1 (centres undefined) [Hexylcaine hydrochloride] (20 µM)                1.01
2  CC#CCn1c(N2CCC[C@@H](N)C2)nc2c1c(=O)n(Cc1nc(C)c3ccccc3n1)c(=O)n2C [Linagliptin] (20 µM)               0.993
3  CC(=O)O[C@]1(C(C)=O)CC[C@H]2[C@@H]3C=C(C)C4=CC(=O)CC[C@]4(C)[C@H]3CC[C@@]21C [Megestrol acetate] (20 µM)               0.998

Proceeding to the next compound to report its growth.
Query string: Which growth is listed for CCCCC(=O)N(Cc1ccc(-c2ccccc2-c2nnn[nH]2)cc1)[C@H](C(=O)O)C(C)C [Valsartan] (20 µM) ?
Result string: 1.08

---

- System: Klebsiella aerogenes DSM 30053
- Experiment: fold change of Cadaverine concentration vs plate DMSO controls (fold change (ratio)); higher = more amine produced, active = hit call of the paper (significant change in both replicates, either direction)
- Test Context: incubation time: 27 h, anaerobic, 37 °C
Entries and their measured fold change of Cadaverine concentration follow.
# answer = number (no unit)

Some solved cases for reference:
> print(dat)
                                   compound  experimental.value
1  CC(C)c1cc2c(cc1S(=O)(=O)O)[C@@]1(C)CCC[C@@](C)(C(=O)O)[C@@H]1CC2 [Ecabet sodium] (20 µM)               0.991
2  CNC(C)CCC=C(C)C (centres undefined) [Isometheptene mucate] (20 µM)                1.02
3  CC(C)NNC(=O)c1ccncc1 [Iproniazide phosphate] (20 µM)                   1

Proceeding to the next compound to report its fold change of Cadaverine concentration.
Query string: Which fold change of Cadaverine concentration is listed for CC(=O)O[C@]1(C(C)=O)CC[C@H]2[C@@H]3C=C(C)C4=CC(=O)CC[C@@H]4[C@H]3CC[C@@]21C [Nomegestrol acetate] (20 µM) ?
Result string: 1.03

---

- Tested on: Klebsiella aerogenes DSM 30053
- Experiment: fold change of Putrescine concentration vs plate DMSO controls (fold change (ratio)); higher = more amine produced, active = hit call of the paper (significant change in both replicates, either direction)
- Test Context: incubation time: 27 h, anaerobic, 37 °C
Counter-ions that a name gives are not always drawn.
Entries and their measured fold change of Putrescine concentration follow.

Compound	fold change of Putrescine concentration
CO[C@@]12[C@H](COC(N)=O)C3=C(C(=O)C(C)=C(N)C3=O)N1C[C@@H]1N[C@@H]12 [Mitomycin C] (20 µM)	0.968 (inactive)
COC(=O)C1=C(C)NC(C)=C(C(=O)OCCN(C)Cc2ccccc2)C1c1cccc([N+](=O)[O-])c1 (stereo unspecified) [Nicardipine hydrochloride] (20 µM)	0.999 (inactive)
CC(=O)SCC(Cc1ccccc1)C(=O)NCC(=O)OCc1ccccc1 (stereo unspecified) [Racecadotril] (20 µM)	0.991 (inactive)
COc1cc2nc(N3CCN(C(=O)C4CCCO4)CC3)nc(N)c2cc1OC (stereo unspecified) [Terazosin hydrochloride] (20 µM)	1.03 (inactive)
CCCCOC(=O)c1ccccc1Nc1cccc(C(F)(F)F)c1 [Ufenamate] (20 µM)	0.979 (inactive)
CCCN(CCC)C(=O)C(CCC(=O)O)NC(=O)c1ccccc1 (stereo unspecified) [Proglumide] (20 µM)	0.919 (inactive)

Query string: Lab request: please report fold change of Putrescine concentration under test system Klebsiella aerogenes DSM 30053 for NC(=O)c1ncn([C@@H]2O[C@H](CO)[C@@H](O)[C@H]2O)n1 [Ribavirin] (20 µM)
Result string: 0.973 (inactive)

Query string: What do we get for CCN(CCCCOC(=O)c1ccc(OC)c(OC)c1)C(C)Cc1ccc(OC)cc1 (stereo unspecified) [Mebeverine hydrochloride] (20 µM) ?
Result string: 1.05 (inactive)

Query string: What do we get for C[C@H](O)C(=O)Nc1c(I)c(C(=O)NC(CO)CO)c(I)c(C(=O)NC(CO)CO)c1I [Iopamidol] (20 µM) ?
Result string: 0.995 (inactive)

Query string: What do we get for COc1cc2/c(=N/c3ccc(Br)cc3F)nc[nH]c2cc1OCC1CCN(C)CC1 [Vandetanib] (20 µM) ?
Result string: 0.907 (inactive)

Query string: What do we get for CCOc1cc(CC(=O)N[C@@H](CC(C)C)c2ccccc2N2CCCCC2)ccc1C(=O)O [Repaglinide] (20 µM) ?
Result string: 0.966 (inactive)

Query string: What do we get for Cn1nnc2c(C(N)=O)ncn2c1=O [Temozolomide] (20 µM) ?
Result string: 0.989 (inactive)

Query string: What do we get for CCCC(CCC)C(=O)O[C@H]1C[C@H]2CC[C@@H](C1)[N+]2(C)C [Anisotropine Methylbromide] (20 µM) ?
Result string: 0.962 (inactive)

Query string: What do we get for CCCc1ncc(C[n+]2ccccc2C)c(N)n1 [Amprolium hydrochloride] (20 µM) ?
Result string: 0.941 (inactive)

Query string: What do we get for CCOC(=O)c1ccc(C#Cc2ccc3c(c2)C(C)(C)CCS3)nc1 [Tazarotene] (20 µM) ?
Result string: 0.977 (inactive)

Query string: What do we get for CC(CN(C)C)CN1c2ccccc2CCc2ccccc21 (stereo unspecified) [Trimipramine maleate salt] (20 µM) ?
Result string: 1.01 (inactive)
